Entries and their OD450 nm (PCSK9 bound to LDLR) values follow.
experimental_target: T1, recombinant human PCSK9 protein, His-tagged (Immunogen A, hPCSK9-His) (human, UniProt Q8NBP7 31-692, limits assumed, biotin-labelled in the ELISA and blocking assays (Biotin labeling kit))
T1 construct: also called human PCSK9-His; recombinant hPCSK9-His; not shown: His tag
experiment_notes: blocking ELISA, biotin-hPCSK9-His on coated LDLR ECD-His; antibody 0.01 nM
reported_endpoint: OD450 nm (PCSK9 bound to LDLR)

- 74C10A8, chimeric anti-PCSK9 mAb purified from hybridoma (antibody, V domains shown, From Harbour H2L2 mice: human variable regions, rat constant regions) VH: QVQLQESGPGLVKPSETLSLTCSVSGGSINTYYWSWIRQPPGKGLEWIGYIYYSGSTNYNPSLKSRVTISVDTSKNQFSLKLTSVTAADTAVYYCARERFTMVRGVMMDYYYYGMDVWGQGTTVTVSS VL: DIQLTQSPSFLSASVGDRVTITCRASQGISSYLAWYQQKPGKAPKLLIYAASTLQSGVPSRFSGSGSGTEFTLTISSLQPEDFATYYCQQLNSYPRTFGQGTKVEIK: 1.34 OD450 nm
- 103C11E8, chimeric anti-PCSK9 mAb purified from hybridoma (antibody, V domains shown, From Harbour H2L2 mice: human variable regions, rat constant regions) VH: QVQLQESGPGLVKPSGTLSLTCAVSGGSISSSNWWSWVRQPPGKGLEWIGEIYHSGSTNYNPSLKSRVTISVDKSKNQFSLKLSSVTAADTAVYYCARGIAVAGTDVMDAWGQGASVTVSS VL: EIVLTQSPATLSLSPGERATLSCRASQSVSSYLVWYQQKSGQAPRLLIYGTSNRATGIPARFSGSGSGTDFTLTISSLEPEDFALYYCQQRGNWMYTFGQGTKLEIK: 0.97 OD450 nm
- 152G2F7, chimeric anti-PCSK9 mAb purified from hybridoma (antibody, V domains shown, From Harbour H2L2 mice: human variable regions, rat constant regions) VH: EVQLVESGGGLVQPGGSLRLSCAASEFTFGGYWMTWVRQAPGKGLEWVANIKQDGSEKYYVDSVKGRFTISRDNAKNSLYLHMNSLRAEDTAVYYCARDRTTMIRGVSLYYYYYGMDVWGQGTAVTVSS VL: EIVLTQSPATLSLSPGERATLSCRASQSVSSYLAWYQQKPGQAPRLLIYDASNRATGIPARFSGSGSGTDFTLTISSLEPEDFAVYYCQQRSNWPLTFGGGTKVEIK: 1.26 OD450 nm
- 139G1C5, chimeric anti-PCSK9 mAb purified from hybridoma (antibody, V domains shown, From Harbour H2L2 mice: human variable regions, rat constant regions) VH: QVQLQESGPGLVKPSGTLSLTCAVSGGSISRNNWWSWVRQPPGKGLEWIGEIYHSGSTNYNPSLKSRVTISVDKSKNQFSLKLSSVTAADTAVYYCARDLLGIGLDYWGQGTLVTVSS VL: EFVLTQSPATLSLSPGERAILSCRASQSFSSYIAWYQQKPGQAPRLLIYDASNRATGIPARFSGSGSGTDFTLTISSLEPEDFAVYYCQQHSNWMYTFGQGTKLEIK: 1.06 OD450 nm
